- Tested on: A549 lung cancer cell line
- assayDetails: MTT assay, cell viability
- Assay type: cell-based, human
- protocolConditions: A549, 48 h, mean ± SD in triplicate

{"columns": ["molecule", "IC50, µM"],
 "data": [
  ["N.N.[Cl][Pt][Cl] [Cisplatin, cisplatin, reference compound]", 3.88]
]}

###

Quick reference: Percentage Cell viability A549 (Lung Cancer) ± SD of the listed items.
- Tested on: A549 lung cancer cell line
- assayDetails: MTT assay, cell viability
- Type: cell-based, human
- protocolConditions: A549, 48 h, mean ± SD in triplicate
measuredMetric: Percentage Cell viability A549 (Lung Cancer) ± SD (%)

{"columns": ["entrySmiles", "observedResult"],
 "data": [
  ["O=C(CSc1nnc(-c2cc3ccccc3o2)n1-c1ccccc1)Nc1ccc(Cl)cc1Cl", 29.29],
  ["O=C(CSc1nnc(-c2cc3ccccc3o2)o1)Nc1ccccc1", 64.1],
  ["O=C(CSc1nnc(-c2cc3ccccc3o2)n1-c1ccccc1)Nc1ccc(Cl)cc1", 36.26],
  ["CCN(CC)C(=O)CSc1nnc(-c2cc3ccccc3o2)o1", 41.45],
  ["O=C(CSc1nnc(-c2cc3ccccc3o2)n1-c1ccccc1)N1CCOCC1", 57.62],
  ["COc1ccccc1NC(=O)CSc1nnc(-c2cc3ccccc3o2)o1", 27.49],
  ["Cc1ccc(NC(=O)CSc2nnc(-c3cc4ccccc4o3)n2-c2ccccc2)c(C)c1", 99.1],
  ["O=C(CSc1nnc(-c2cc3ccccc3o2)o1)N1CCOCC1", 45.99],
  ["CCOc1ccc(NC(=O)CSc2nnc(-c3cc4ccccc4o3)o2)cc1", 34.47]
]}

###

measuredMetric: melting point

{"columns": ["entrySmiles", "measuredMetric", "observedResult"],
 "data": [
  ["O=C(CSc1nnc(-c2cc3ccccc3o2)n1-c1ccccc1)Nc1ccc(Cl)cc1", "melting point", "229 to 230 °C"],
  ["Cc1ccc(NC(=O)CSc2nnc(-c3cc4ccccc4o3)n2-c2ccccc2)c(C)c1", "melting point", "226 to 227 °C"],
  ["O=C(CSc1nnc(-c2cc3ccccc3o2)n1-c1ccccc1)Nc1ccc(Cl)cc1Cl", "melting point", "217 to 219 °C"],
  ["CCOc1ccc(NC(=O)CSc2nnc(-c3cc4ccccc4o3)o2)cc1", "melting point", "154 to 156 °C"],
  ["O=C(CSc1nnc(-c2cc3ccccc3o2)n1-c1ccccc1)N1CCOCC1", "melting point", "173 to 175 °C"],
  ["O=C(CSc1nnc(-c2cc3ccccc3o2)o1)Nc1ccccc1", "melting point", "212 to 214 °C"],
  ["COc1ccccc1NC(=O)CSc1nnc(-c2cc3ccccc3o2)o1", "melting point", "176 to 178 °C"],
  ["O=C(CSc1nnc(-c2cc3ccccc3o2)o1)N1CCOCC1", "melting point", "181 to 182 °C"],
  ["CCN(CC)C(=O)CSc1nnc(-c2cc3ccccc3o2)o1", "melting point", "96 to 97 °C"]
]}

###

Quick reference: hemolysis at 60 min of the listed items.
- assayDetails: Hemolysis assay
- Type: cell-based
- protocolConditions: human, red blood cells (washed RBC pellet); read-out: Percentage Hemolysis ± SD
measuredMetric: hemolysis at 60 min

{"columns": ["entrySmiles", "measuredMetric", "observedResult"],
 "data": [
  ["O=C(CSc1nnc(-c2cc3ccccc3o2)n1-c1ccccc1)Nc1ccc(Cl)cc1", "hemolysis at 60 min", "23.4%"],
  ["O=C(CSc1nnc(-c2cc3ccccc3o2)o1)N1CCOCC1", "hemolysis at 60 min", "22.1%"],
  ["CCOc1ccc(NC(=O)CSc2nnc(-c3cc4ccccc4o3)o2)cc1", "hemolysis at 60 min", "0.5%"],
  ["O=C(CSc1nnc(-c2cc3ccccc3o2)n1-c1ccccc1)N1CCOCC1", "hemolysis at 60 min", "0.1%"],
  ["Cc1ccc(NC(=O)CSc2nnc(-c3cc4ccccc4o3)n2-c2ccccc2)c(C)c1", "hemolysis at 60 min", "15.7%"],
  ["COc1ccccc1NC(=O)CSc1nnc(-c2cc3ccccc3o2)o1", "hemolysis at 60 min", "5.02%"],
  ["O=C(CSc1nnc(-c2cc3ccccc3o2)n1-c1ccccc1)Nc1ccc(Cl)cc1Cl", "hemolysis at 60 min", "14.8%"],
  ["CCN(CC)C(=O)CSc1nnc(-c2cc3ccccc3o2)o1", "hemolysis at 60 min", "4.86%"],
  ["O=C(CSc1nnc(-c2cc3ccccc3o2)o1)Nc1ccccc1", "hemolysis at 60 min", "3.7%"]
]}

Where these numbers come from: paper PMC8838991
